target: PI3K (Homo sapiens); construct: PI3 Kinase γ IC50; other: PI3 Kinase γ; other: PI3 Kinase γ isoform, fluorescence polarization; experiment: Fluorescence polarization assay for PI3K; format: biochemical; details: PI3 Kinase γ isoform, fluorescence polarization; read-out: PI3 Kinase γ IC50
// assign satisfied if IC50 falls strictly below 4 µM, else not satisfied (ties count as not satisfied)

Reference set (5 entries):
molecule=O=C(Nc1ccc(-c2nc(N3CC4CCC(C3)O4)c3sccc3n2)cc1)Nc1cccnc1 assaytarget="PI3K (Homo sapiens)" group=satisfied
molecule=C=Cc1nn(CC)c2nc(-c3ccc(NC(=O)NC)cc3)nc(N3CC4CCC(C3)O4)c12 assaytarget="PI3K (Homo sapiens)" group="not satisfied"
molecule=COC(=O)N1CCC(n2ncc3c(N4C5CCC4COC5)nc(-c4ccc(NC(=O)Nc5ccc(CN6CCN(C)CC6)cc5)cc4)nc32)CC1 assaytarget="PI3K (Homo sapiens)" group=satisfied
molecule=CNC(=O)Nc1ccc(-c2nc(N3C[C@H]4C[C@@H]3CO4)c3cnn(CC(F)(F)F)c3n2)cc1 assaytarget="PI3K (Homo sapiens)" group="not satisfied"
molecule="CCn1nc(C(O)CO)c2c(N3CC4CCC(C3)O4)nc(-c3ccc(NC(=O)NC)cc3)nc21 (stereo not shown)" assaytarget="PI3K (Homo sapiens)" group="not satisfied"

Field: below-cutoff. Rule: recorded IC50 strictly less than 4 µM. Subject: `O=C(Nc1ccc(-c2nc(N3CC4CCC(C3)O4)c3sccc3n2)cc1)NC1CC1`
not satisfied

Hello, I'm reviewing records and need to know if IC50 of `COCC(COC)n1ncc2c(N3CC4CCC(C3)O4)nc(-c3ccc(NC(=O)Nc4cccnc4)cc3)nc21` is below 4 µM. Could you check?
not satisfied

Dear colleague, could you confirm whether IC50 of CO[C@H]1CC[C@@H](n2ncc3c(N4CC5CCC(C4)O5)nc(-c4ccc(NC(=O)NC5CC5)cc4)nc32)CC1 (relative stereo) falls below 4 µM? Thanks.
not satisfied

Threshold test, IC50 < 4 µM: CNC(=O)Nc1ccc(-c2nc(N3CC4CCC(C3)O4)c3cnn(C4CCC(N5CCN(C)CC5)CC4)c3n2)cc1 (stereo not shown)
not satisfied

Decide: IC50 of `COCC(COC)n1ncc2c(N3CC4CCC(C3)O4)nc(-c3ccc(NC(=O)OCCO)cc3)nc21` strictly below 4 µM?
not satisfied

---

Target: PI3K (Homo sapiens)
Construct: PI3 Kinase α IC50; other: PI3 Kinase α; other: PI3 Kinase α isoform, fluorescence polarization
Experiment: Fluorescence polarization assay for PI3K
Type: biochemical
Conditions: PI3 Kinase α; read-out: PI3 Kinase α IC50
Procedure: This assay is used to determine the IC50 of compounds of the present invention as it identifies inhibitors of PI3 kinase by measuring inhibition. […] Stop/detector mix is prepared by mixing 4 μL Red detector and 1.6 μL or 2.0 μL GST-GRP with 1 mL Stop buffer, which results in 10 nM probe and 70 nM GST-GRP). […] The plates are read after 30-90 minutes keeping the red probe solutions dark. […] Plates are read on machines with filters for Tamra. […]
pIC50: −log10 of the molar value.
Rule: pIC50 of 6 or more gives met; anything lower gives not met.

Use these answered entries as a reference point.
compoundstring=O=C(Nc1ccc(-c2nc(N3C[C@@H]4C[C@H]3CO4)c3cnn(CC(F)(F)F)c3n2)cc1)Nc1cccnc1 group=met
compoundstring=O=C(Nc1ccncc1)Nc1ccc(-c2nc(N3CC4CCC(C3)O4)c3cnn(C4CCC5(CC4)OCCO5)c3n2)cc1 group=met
compoundstring=CN(C)CCn1ncc2c(N3CC4CCC(C3)O4)nc(-c3ccc(NC(=O)Nc4ccccc4)cc3)nc21 group=met
compoundstring=N#CCCn1ncc2c(N3CC4CCC(C3)O4)nc(-c3ccc(NC(=O)NC4CC4)cc3)nc21 group="not met"

// next entry
API: above_or_equal(metric=pIC50, cutoff=6) for item `CN1CCN(c2ccc(NC(=O)Nc3ccc(-c4nc(N5CC6CCC(C5)O6)c5cnn(CCO)c5n4)cc3)cc2)CC1`
met
